- Test system: SN12C
- RUN_DESCRIPTION: Growth inhibition of human SN12C cells incubated for 48 hrs by sulforhodamine B assay
- Format: functional
QUANTITY_NAME: GI50 (µM)

>>> df
                            compound_smiles  target_or_test_system  quantity_name  censoring_operator  test_value
0  COCCn1cc(-c2csc(-c3c[nH]c4ccc(F)cc34)n2)c2cccnc21                  SN12C           GI50                   >         100
1  COCCn1cc(-c2csc(-c3c[nH]c4ccc(Br)cc34)n2)c2cccnc21                  SN12C           GI50                   =        7.72
2  COCCn1cc(-c2nc(-c3c[nH]c4ncccc34)cs2)c2cc(OC)ccc21                  SN12C           GI50                   =        5.51
3  COCCn1cc(-c2csc(-c3c[nH]c4ccccc34)n2)c2cccnc21                  SN12C           GI50                   >         100

====

- Tested on: SK-MEL-28
- RUN_DESCRIPTION: Growth inhibition of human SK-MEL-28 cells incubated for 48 hrs by sulforhodamine B assay
- Format: functional
- CONDITIONS_USED: SK-MEL-28, 48 h
QUANTITY_NAME: GI50 (µM)

>>> print(df.to_string())
                            compound_smiles  test_value
0  COCCn1cc(-c2nc(-c3c[nH]c4ncccc34)cs2)c2cc(OC)ccc21        7.39
1  COCCn1cc(-c2csc(-c3c[nH]c4ccc(Br)cc34)n2)c2cccnc21        4.79
2  COCCn1cc(-c2csc(-c3c[nH]c4ccccc34)n2)c2cccnc21        8.19
3  COCCn1cc(-c2csc(-c3c[nH]c4ccc(F)cc34)n2)c2cccnc21        7.72

====

- Tested on: COLO 205
- RUN_DESCRIPTION: Growth inhibition of human COLO205 cells incubated for 48 hrs by sulforhodamine B assay
- Type: functional
- CONDITIONS_USED: COLO 205, 48 h
GI50 by entry:
QUANTITY_NAME: GI50

>>> df
                            compound_smiles  quantity_name  test_value
0  COCCn1cc(-c2nc(-c3c[nH]c4ncccc34)cs2)c2cc(OC)ccc21           GI50     5030 nM
1  COCCn1cc(-c2csc(-c3c[nH]c4ccc(F)cc34)n2)c2cccnc21           GI50     2690 nM
2  COCCn1cc(-c2csc(-c3c[nH]c4ccccc34)n2)c2cccnc21           GI50     2660 nM
3  COCCn1cc(-c2csc(-c3c[nH]c4ccc(Br)cc34)n2)c2cccnc21           GI50     3220 nM

====

- System: Caco-2
- RUN_DESCRIPTION: Cytotoxicity against human Caco2 cells assessed as reduction in cell viability after 72 hrs by MTT assay
- Format: cell-based
- CONDITIONS_USED: caco-2, 72 h
QUANTITY_NAME: LC50

>>> df
                            compound_smiles  test_value
0  COCCn1cc(-c2nc(-c3c[nH]c4ncccc34)cs2)c2cc(OC)ccc21    < 100 µM
1  COCCn1cc(-c2csc(-c3c[nH]c4ccc(F)cc34)n2)c2cccnc21     96.1 µM
2  COCCn1cc(-c2csc(-c3c[nH]c4ccc(Br)cc34)n2)c2cccnc21     83.3 µM
3  COCCn1cc(-c2csc(-c3c[nH]c4ccccc34)n2)c2cccnc21     71.4 µM

====

- System: OVCAR-3
- RUN_DESCRIPTION: Growth inhibition of human OVCAR3 cells incubated for 48 hrs by sulforhodamine B assay
- Format: functional
- CONDITIONS_USED: OVCAR-3, 48 h
GI50 by entry:
QUANTITY_NAME: GI50 (µM)

>>> df
                            compound_smiles  target_or_test_system  uom  test_value
0  COCCn1cc(-c2csc(-c3c[nH]c4ccc(F)cc34)n2)c2cccnc21                OVCAR-3   µM        3.34
1  COCCn1cc(-c2nc(-c3c[nH]c4ncccc34)cs2)c2cc(OC)ccc21                OVCAR-3   µM        4.66
2  COCCn1cc(-c2csc(-c3c[nH]c4ccccc34)n2)c2cccnc21                OVCAR-3   µM        2.94
3  COCCn1cc(-c2csc(-c3c[nH]c4ccc(Br)cc34)n2)c2cccnc21                OVCAR-3   µM         3.9

====

selectivity ratio by entry:
- RUN_DESCRIPTION: Selectivity index, ratio of LC50 for human Caco2 cells to GI50 for human MCF7 cells
- Type: toxicity
- CONDITIONS_USED: Caco2 cells (LC50) and MCF7 cells (GI50), read-out: Selectivity Index
QUANTITY_NAME: selectivity ratio

>>> df
                            compound_smiles  test_value
0  COCCn1cc(-c2csc(-c3c[nH]c4ccc(F)cc34)n2)c2cccnc21          46
1  COCCn1cc(-c2csc(-c3c[nH]c4ccccc34)n2)c2cccnc21          41
2  COCCn1cc(-c2csc(-c3c[nH]c4ccc(Br)cc34)n2)c2cccnc21          46

====

GI50 by entry:
- Test system: RXF 393
- RUN_DESCRIPTION: Growth inhibition of human RXF393 cells incubated for 48 hrs by sulforhodamine B assay
- Assay type: functional
- CONDITIONS_USED: RXF 393, 48 h
QUANTITY_NAME: GI50 (µM)

>>> print(df.to_string())
                            compound_smiles  test_value
0  COCCn1cc(-c2nc(-c3c[nH]c4ncccc34)cs2)c2cc(OC)ccc21        1.18
1  COCCn1cc(-c2csc(-c3c[nH]c4ccc(F)cc34)n2)c2cccnc21        5.91
2  COCCn1cc(-c2csc(-c3c[nH]c4ccc(Br)cc34)n2)c2cccnc21         3.3
3  COCCn1cc(-c2csc(-c3c[nH]c4ccccc34)n2)c2cccnc21        5.76

====

GI50 by entry:
- Tested on: NCI/ADR-RES
- RUN_DESCRIPTION: Growth inhibition of human NCI/ADR-RES cells incubated for 48 hrs by sulforhodamine B assay
- Assay type: functional
QUANTITY_NAME: GI50

                            compound_smiles  test_value
0  COCCn1cc(-c2csc(-c3c[nH]c4ccccc34)n2)c2cccnc21     1760 nM
1  COCCn1cc(-c2nc(-c3c[nH]c4ncccc34)cs2)c2cc(OC)ccc21     3070 nM
2  COCCn1cc(-c2csc(-c3c[nH]c4ccc(F)cc34)n2)c2cccnc21     2170 nM
3  COCCn1cc(-c2csc(-c3c[nH]c4ccc(Br)cc34)n2)c2cccnc21     2860 nM

====

- Test system: A549
- RUN_DESCRIPTION: Growth inhibition of human A549/ATCC cells incubated for 48 hrs by sulforhodamine B assay
- Assay type: functional
- CONDITIONS_USED: A549, 48 h
GI50 by entry:
QUANTITY_NAME: GI50 (µM)

>>> print(df.to_string())
                            compound_smiles  quantity_name  test_value
0  COCCn1cc(-c2csc(-c3c[nH]c4ccc(F)cc34)n2)c2cccnc21           GI50        4.51
1  COCCn1cc(-c2csc(-c3c[nH]c4ccccc34)n2)c2cccnc21           GI50         7.1
2  COCCn1cc(-c2csc(-c3c[nH]c4ccc(Br)cc34)n2)c2cccnc21           GI50        6.89
3  COCCn1cc(-c2nc(-c3c[nH]c4ncccc34)cs2)c2cc(OC)ccc21           GI50        4.41

====

GI50 by entry:
- Tested on: HCC 2998
- RUN_DESCRIPTION: Growth inhibition of human HCC2998 cells incubated for 48 hrs by sulforhodamine B assay
- Assay type: functional
- CONDITIONS_USED: HCC 2998, 48 h
QUANTITY_NAME: GI50 (µM)

>>> print(df.to_string())
                            compound_smiles  test_value
0  COCCn1cc(-c2csc(-c3c[nH]c4ccc(Br)cc34)n2)c2cccnc21         3.8
1  COCCn1cc(-c2nc(-c3c[nH]c4ncccc34)cs2)c2cc(OC)ccc21        4.81
2  COCCn1cc(-c2csc(-c3c[nH]c4ccccc34)n2)c2cccnc21        4.08
3  COCCn1cc(-c2csc(-c3c[nH]c4ccc(F)cc34)n2)c2cccnc21        4.54
